molecular target: Coagulation factor XI (Homo sapiens); experiment: human FXIa protease inhibitors, primary screen, biochemical, single compound per well (AID 687); conditions: purified human FXIa, fluorogenic AMC substrate cleavage; at 10 µM; hits give high values;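 further: 0% = enzyme without compound and 100% = blank wells lacking enzyme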
In all, about 33,000 compounds went through this assay and about 95 (0.3%) were called active. For the sample, actives were picked, then their nearest neighbours and some compounds at random.
Assignment: determine reported inhibition for the given compounds.
Note: unit % is implicit; provide only the numeric part.

Coagulation factor XI (Homo sapiens) assay, compound CCOC(=O)c1cnc2sccn2c1=O , recorded inhibition = 6.51

Coagulation factor XI (Homo sapiens) assay, compound Cc1cccc(N2CCN(S(=O)(=O)c3ccc4[nH]c(=O)c(=O)[nH]c4c3)CC2C)c1 (stereo unspecified) , recorded inhibition = -6.46

Coagulation factor XI (Homo sapiens) assay, compound COC(=O)c1cccc(N(C(=O)c2ccco2)C(C(=O)NC2CCCC2)c2ccco2)c1 (stereo unspecified) , recorded inhibition = -11.4

Coagulation factor XI (Homo sapiens) assay, compound Cc1ccsc1C(=O)OCC(=O)c1cc2ccccc2o1 , recorded inhibition = 3.48

Coagulation factor XI (Homo sapiens) assay, compound COc1cc(S(=O)(=O)N(Cc2cccs2)C2CC2)ccc1-n1cnnn1 , recorded inhibition = 6.31

Coagulation factor XI (Homo sapiens) assay, compound Cc1ccc(OCC(=O)Nn2cnc3ccccc32)cc1 , recorded inhibition = 13.2

====

biological target: Coagulation factor XI (Homo sapiens) (UniProt P03951); experiment: human FXIa protease inhibitors, primary screen, biochemical, single compound per well (AID 687); settings: purified human FXIa, fluorogenic AMC substrate cleavage; at 10 µM; hits give high values;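 further: 0% = enzyme without compound and 100% = blank wells lacking enzyme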
Sequence (P03951 19-387 limits assumed): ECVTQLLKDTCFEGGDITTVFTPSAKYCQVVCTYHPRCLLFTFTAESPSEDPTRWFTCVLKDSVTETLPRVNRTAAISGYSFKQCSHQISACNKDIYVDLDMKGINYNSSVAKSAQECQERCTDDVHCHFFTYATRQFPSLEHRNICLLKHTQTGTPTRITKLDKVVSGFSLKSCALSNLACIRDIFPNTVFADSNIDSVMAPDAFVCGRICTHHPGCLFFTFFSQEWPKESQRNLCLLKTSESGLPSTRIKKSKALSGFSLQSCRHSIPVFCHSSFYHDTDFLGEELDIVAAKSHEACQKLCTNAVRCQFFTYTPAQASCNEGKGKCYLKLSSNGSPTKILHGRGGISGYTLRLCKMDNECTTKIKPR
Sequence (P03951 388-625 limits assumed): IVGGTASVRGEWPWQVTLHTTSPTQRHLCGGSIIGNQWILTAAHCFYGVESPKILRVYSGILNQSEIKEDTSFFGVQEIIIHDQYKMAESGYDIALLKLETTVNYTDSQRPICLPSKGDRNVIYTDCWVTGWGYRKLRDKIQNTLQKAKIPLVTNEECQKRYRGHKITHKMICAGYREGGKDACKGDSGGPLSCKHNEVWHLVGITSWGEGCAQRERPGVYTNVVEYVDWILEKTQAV
Hit rate of the full screen: of about 33,000 compounds, about 95 (0.3%) were called active. This is one part of a sample in which actives are shown more often than they occur.
Quantity: inhibition

Lab note: measured inhibition of Cc1cc(=O)oc(C)c1C(=O)N1CCCCC1 was 32.7% (inactive)

Lab note: measured inhibition of O=C(O)CSCc1ccc(C(=O)O)o1 was 0.52% (inactive)

Lab note: measured inhibition of COc1ccc(-c2cc3nc(C)c(CCC(=O)NC(C)CCc4ccco4)c(C)n3n2)c(OC)c1 (stereo not drawn) was 0.38% (inactive)

Lab note: measured inhibition of O=C(c1ccco1)N1CCN(C(=O)C2CCCN(S(=O)(=O)c3cccc4nsnc34)C2)CC1 (stereo not drawn) was -6.85% (inactive)

Lab note: measured inhibition of CCN(CC)C(=O)CSc1nnc(C2CCCCC2)o1 was 5.02% (inactive)

Lab note: measured inhibition of COc1ccc(C(=O)CSc2nccc(=O)[nH]2)cc1 was 4.89% (inactive)

Lab note: measured inhibition of Cc1cc(C(=O)Nc2c(C)nn(Cc3ccccc3)c2C)on1 was 9.91% (inactive)

Lab note: measured inhibition of COc1ccccc1NC(=O)C1CCCN(c2cc(C)nc3ncnn23)C1 (stereo not drawn) was -7.53% (inactive)

====

target: Coagulation factor XI (Homo sapiens) (UniProt P03951); assay: human FXIa protease inhibitors, primary screen, biochemical, single compound per well (AID 687); details: purified human FXIa, fluorogenic AMC substrate cleavage; at 10 µM; hits give high values;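 further: 0% = enzyme without compound and 100% = blank wells lacking enzyme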
The campaign covered roughly 33,000 compounds. About 95 (0.3%) were called active. This is one part of a sample in which actives are shown more often than they occur.
Quantity: inhibition (%)
Note: unit % is implicit; provide only the numeric part.

Lab note: measured inhibition of CCCOc1ccc(C2NC(=O)NC(c3ccccc3)=C2C(C)=O)cc1OCC (stereo not given) was -6.35

Lab note: measured inhibition of Cc1ccc(C(=O)N2CCN(C3CCCCC3)CC2)s1 was -2.79

Lab note: measured inhibition of COc1ccc(-c2nnc(SCC(=O)c3ccc4c(c3)OCCO4)o2)cc1 was -2.7

Lab note: measured inhibition of CCNC(=O)N1CCNC(=O)C1CC(=O)Nc1ccc(C(=O)OCC)cc1 (stereo not given) was -0.73

Lab note: measured inhibition of CCOc1ccc(NC(=O)CCS(=O)(=O)c2ccc3c(c2)CCCN3C(=O)CC)cc1 was 19.3

Lab note: measured inhibition of Cc1cccc(NC(=O)CN2C(=O)CNC2=O)c1 was 7.39

Lab note: measured inhibition of Cc1cc(C(=O)OC(C)C(=O)Nc2cccc(S(=O)(=O)N3CCOCC3)c2)c(C)o1 (stereo not given) was -5.93

Lab note: measured inhibition of O=c1c2ccccc2nc2n1C1(CCCCC1)Cc1ccccc1-2 was -5.48

Lab note: measured inhibition of CCCC(O)(c1ccc(OC)cc1)C(CN(C)C)c1ccccc1 (stereo not given) was -1.37

Lab note: measured inhibition of CCOC(=O)c1c(C)nc2c(c1C)c(=O)oc1ccccc12 was 43.4

Lab note: measured inhibition of COC(=O)/C(=C\Nc1ccccc1)NC(=O)c1ccc(Cl)cc1Cl was 7.22

Lab note: measured inhibition of CCOC(=O)c1ccc(COC(=O)c2cc(=O)[nH]c3ccccc23)o1 was 0.06

Lab note: measured inhibition of c1ccc2[nH]c(NCCN3CCOCC3)nc2c1 was -1.88

Lab note: measured inhibition of CCOc1ccc(C(=O)NCCCN2CCCC2=O)cc1 was -9.62

Lab note: measured inhibition of Cc1nc(NNC(=O)c2ccccc2)cc(-c2ccccc2)n1 was -2.36

Lab note: measured inhibition of CCOC(=O)C1=C(CSc2nccn2C)NC(=O)NC1c1ccc(OC)cc1 (stereo not given) was -6.24

Lab note: measured inhibition of COc1ccc(-n2cnc3cc(NCc4ccco4)ccc32)cc1 was 4.4

Lab note: measured inhibition of CC(=O)Nc1ccc(S(=O)(=O)N2CCN(C3CCCCCCC3)CC2)cc1 was 0.06

Lab note: measured inhibition of CCOC(=O)c1cc2ccccc2nc1C was -0.46

Lab note: measured inhibition of O=C(c1ccc(CN2CCOCC2)cc1)N1CCN(c2ccccc2F)CC1 was 3.59
